Target: Recombinant human HSD17B13 enzyme (Homo sapiens (Human), UniProt Q7Z5P4)
Sequence (Q7Z5P4 20-300): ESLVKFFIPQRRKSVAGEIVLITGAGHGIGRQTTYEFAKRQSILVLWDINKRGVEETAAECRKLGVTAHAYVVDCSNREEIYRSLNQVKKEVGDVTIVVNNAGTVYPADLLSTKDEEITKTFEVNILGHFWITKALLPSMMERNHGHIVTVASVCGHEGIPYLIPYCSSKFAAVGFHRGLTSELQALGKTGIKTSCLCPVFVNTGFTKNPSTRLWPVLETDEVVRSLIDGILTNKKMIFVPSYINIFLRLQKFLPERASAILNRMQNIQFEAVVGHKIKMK
Test: HSD17b13 NAD(P)H-Glo Biochemical Assay
Conditions: 50 uM estradiol, 1 mM NAD+; read-out: HSD17β13 IC50
Attribute: IC50

Example entries and their recorded answers appear below.
molecule: CS(=O)(=O)N1CCN(c2cc3cnn(-c4cc(O)cc(OC(F)(F)F)c4)c3cn2)CC1 [Compound 19.12]
IC50: 1 to 30 µM

molecule: O=C(O)c1cccc(-c2ccc3c(cnn3-c3ccc(F)c(O)c3)c2)c1 [Compound 5.24]
IC50: 1 to 30 µM

Record request: IC50 value, item COc1ccc(-c2ccc3c(cnn3-c3cc(O)c(F)c(F)c3)c2)cn1 [Compound 7.01]
0.1 to 1 µM

Record request: IC50 value, item Oc1cc(-n2ncc3nc(-c4ccc(O)c(Cl)c4)ccc32)ccc1F [Compound 8.03]
1 to 30 µM

Record request: IC50 value, item Cc1nn(-c2cc(C(F)(F)F)c(F)c(O)c2F)c2cnc(N3CCOCC34CCC4)cc12 [Compound 19.65]
< 0.1 µM
